system: HT29 colon; experiment: NCI tumour cell line growth inhibition, 48 h
Value type: TGI

Kindly give each listed record's TGI.
1. CCOC(=O)NC(=O)c1cn(C(CC)COC(=O)NCCCCCCNC(=O)OCC(CC)n2cc(C(=O)NC(=O)OCC)c(=O)[nH]c2=O)c(=O)[nH]c1=O (stereo unspecified)
2. C[C@]12CC[C@@H]3c4ccc(O)cc4CC[C@H]3[C@@H]1C/C(=C\c1ccncc1)[C@@H]2O
3. CC(C)=CCC/C(C)=C/COC(C)(C)C1=CCC(C)CC1 (stereo unspecified) (tested in a mixture with another compound)
4. O=C(Oc1cc(=O)c(OC(=O)c2ccccc2)co1)c1ccccc1
5. Cc1cc(-c2nc3ccccc3s2)ccc1NC(=O)[C@@H](N)CCCCN

1. > 100 µM
2. > 100 µM
3. > 100 µM
4. > 100 µM
5. 16.9 µM

* * *

system: KM12 colon; assay: NCI tumour cell line growth inhibition, 48 h
Value type: TGI

Kindly give each listed record's TGI.
1. COc1ccc(-c2ccc3c(N4CCOC[C@@H]4C)nc(N4CCOC[C@@H]4C)nc3n2)cc1CO
2. c1ccc2c(c1)c1c(n2CCOCCN2CCOCC2)CCCC1
3. Nc1ccccc1C(=O)/C=C/c1c(O)ccc2ccccc12
4. COC(=O)CCc1cc(OC)c2c(c1)[C@H](C(=O)OC)[C@@H](c1ccc(O)c(OC)c1)O2
5. CC[n+]1[b-](C(C)(C)C)n(/N=C/C(C)(C)C)[b-](C(C)(C)C)[n+]1CC
6. Cc1ccc([N+](=O)[O-])cc1N=NC(=O)NNc1cc([N+](=O)[O-])ccc1C
7. Cc1cc2c(c(C(N)=O)c1C)-c1ccccc1C2=O

1: > 100 µM; 2: > 100 µM; 3: > 100 µM; 4: > 100 µM; 5: > 100 µM; 6: 49.3 µM; 7: > 100 µM

* * *

system: SF-539 CNS; assay: NCI tumour cell line growth inhibition, 48 h
Value type: TGI

Some solved entries appear below for comparison.
Report measured TGI; entry is `CC[n+]1[b-](C(C)(C)C)n(/N=C/C(C)(C)C)[b-](C(C)(C)C)[n+]1CC`
> 100 µM

Report measured TGI; entry is NC(CC1=CS(=O)(=O)c2ccc(Cl)cc21)C(=O)O (stereo unspecified)
> 100 µM

Report measured TGI; entry is `C#CCOc1cccc(Nc2ncnc3c(NC(=O)C=C)cccc23)c1`
36 µM

Report measured TGI; entry is `O=C(Nc1cc(Cl)ccc1O)c1ccc(Nc2ccnc(C(F)(F)F)c2)cc1`
> 100 µM

Report measured TGI; entry is `COc1ccc(C(=O)c2cc(OC)c(OC)c(OC)c2)cc1OC`
5.14 µM

Report measured TGI; entry is CNc1ncnc2c1cnn2COCC(O)CO (stereo unspecified)
> 100 µM

Report measured TGI; entry is `O=C(/C(=C\c1c(-c2ccccc2)[nH]c2ccccc12)S(=O)(=O)c1ccccc1)c1ccccc1`
> 100 µM

Report measured TGI; entry is COC(=O)C1C(O)C(C(=O)OC)C(C)N(C)C1C (stereo unspecified)
> 100 µM

Report measured TGI; entry is `Nc1ccc(-c2nc3ccccc3s2)cc1C(F)(F)F`
37.7 µM

Report measured TGI; entry is `Cc1cc2c([N+](=O)[O-])cc3c(c2o1)C(=O)C=CC3=O`
31.3 µM

Kindly give each listed record's TGI.
1. Nc1ccccc1O.O.O=C(O)C1[O][Sb][O]C1C(=O)O (stereo unspecified)
2. CC(C)(C)c1ccc2c(c1)S(=O)(=O)Nc1ccc(Cl)cc1NS(=O)(=O)c1cc(C(C)(C)C)ccc1OCCOCCOCCO2
3. ClCCN(CCCl)c1ccc(CNc2ccccc2)cc1
4. COc1ccc(-c2oc(/C=N/NC(N)=S)c([N+](=O)[O-])c2-c2ccc(OC)c(OC)c2)cc1OC

1. 37.4 µM
2. > 100 µM
3. 24.2 µM
4. 67.6 µM

Kindly give each listed record's TGI.
1. S=C(/N=c1\sc(Nc2ccc(Cl)cc2)nc2sc3c(c12)CCN(N1CCc2c(sc4nc(Nc5ccc(Cl)cc5)s/c(=N\C(=S)Nc5ccc(Cl)cc5)c24)C1)C3)Nc1ccc(Cl)cc1
2. CC(C)c1[nH]nc2c1N=C(c1ccccc1Cl)c1cc([N+](=O)[O-])ccc1N2
3. CCN(CC)CCCCCCNc1cccc2cc(Br)cnc12
4. Cc1ccc(OCCn2cc(Nc3ccccc3)c(=O)n(CCOc3ccc(C)cc3)c2=O)cc1
5. CC1(C)C2CC(=O)C1(C)C(O)C2Br (stereo unspecified)
6. CCCC/C(=C\C1=C(C)C(=O)C(OC)=C(OC)C1=O)C(=O)O
7. O=C1CCCN1c1ccccc1I(=O)=O

1. 35.6 µM
2. > 22 µM
3. 20.8 µM
4. > 100 µM
5. > 100 µM
6. > 100 µM
7. > 100 µM
